All figures here come from PubChem BioAssay (NCI).

System: BT-549 breast
EXPERIMENTAL_PROTOCOL: NCI-60 one-dose screen, 48 h
STATED_CONDITIONS: 10 µM unless noted
Description: Growth inhibition of the BT-549 human tumor cell line is measured as a screen for anti-cancer activity. Cells are grown in 96 well plates and exposed to the test compound for 48 hours. Compounds are tested at a single concentration, which is 10^-5 M for most compounds. The reported endpoint is percent growth (GI% or GIPRCNT), where numbers from 0 - 100% represent growth inhibition, and numbers from -100% - 0 represent cell death. For example, a value of 40 represents 60% growth inhibition. […]
About 83,000 compounds went through this panel and 20% of them were active in at least one assay; those are over-represented in the sample as a whole. Calls of active or inactive are those of the source. How the source made its calls: active means growth percent below 10; inactive means the rest.
Classes used: label 1 for active, label 0 for inactive

COMPOUND	LABEL
CCOP(=O)(OCC)OC[C@]12CCC(C)(C)C=C1[C@H]1CC[C@@H]3[C@@]4(C)CC[C@H](OP(=O)(OCC)OCC)C(C)(C)[C@@H]4CC[C@@]3(C)[C@]1(C)CC2	label 1
O=C(CSc1nc2ccccc2c(=O)n1-c1ccccc1)Nc1cccc(C(=O)/C=C/c2ccccc2Cl)c1	label 0
CC(=O)c1ccc(Nc2nc(SCC(C)C)nc(-c3ccccc3)c2C#N)cc1	label 0
C#CC(=O)N(c1ccc(OC)cc1OC)C(C(=O)NCC(=O)OCC)c1cccs1 (stereo not drawn)	label 0
O=C(CN1CCN(c2cc(=O)n(-c3ccccc3)c3ccccc23)CC1)Nc1nc(-c2ccc(Cl)cc2)cs1	label 0
CCN(CC)c1ccc2c(c1)Oc1nc(N)c(C#N)c(N)c1C2Sc1ccc(F)cc1 (stereo not drawn)	label 0
COc1cc(Cn2cc3c(c2)-c2onc(CN4CCOCC4)c2CC3)cc(OC)c1OC	label 0
COc1ccc(NC(=O)CSc2nnc(-c3ccc4nc(-c5ccccc5)[nH]c4c3)o2)cc1	label 0
CS(=O)(=O)c1ccc(-c2nn(-c3ccccc3)cc2/C=N/NC(=O)c2nc(N)n[nH]2)cc1	label 0
COc1ccc([C@H]2[C@H](O)C(=O)N2c2cc(OC)c(OC)c(OC)c2)cc1F	label 1
C#CCNC1CCC(c2csc(C#C)n2)=C1C (stereo not drawn)	label 0
COc1cc2oc(-c3cccc(NC(=O)c4cc(N)ccc4Cl)c3)cc(=O)c2c(OC)c1OC	label 0
C=CCn1c(SCC(=O)Nc2ccc(C(=O)/C=C/c3cccc([N+](=O)[O-])c3)cc2)nnc1-c1c[nH]c2ccccc12	label 0
CC(C)C[C@@H]1N[C@@]2(C(=O)Nc3ccccc32)[C@@H](c2ccc(F)cc2)[C@@H]1C(=O)c1ccc(O)cc1	label 0
Cc1ccc(S(=O)(=O)NCCNc2nc(Nc3ccc(N4CCN(C)CC4)cc3)nc3ccsc23)cc1	label 0
O=C(O)c1ccc(-n2cc(CNc3cc(F)c(F)c(F)c3)c(-c3ccc(F)cc3)n2)cc1	label 0
Cc1cc(C(NC(=O)CCCCCNc2cccc3c2C(=O)N(C2CCC(=O)NC2=O)C3=O)c2ccc3c(c2)OC(F)(F)O3)c(O)c2ncccc12 (stereo not drawn)	label 0
Cc1nc(-c2ccccc2O)ccc1C(=O)N=Nc1c(O)[nH]c2ccc(Br)cc12	label 0
CNC(=O)c1c(NC(=O)c2ccccc2C(F)(F)F)sc2c1CCC(=O)C2	label 0
COc1cc(-c2nn(C(C)(C)C)cc2-c2ccnc(NCCCNS(=O)(=O)c3ccccc3)n2)ccc1Cl	label 0
COc1cccc(O)c1/C=C(/C)c1ccc2c(OC)cccc2[o+]1	label 0
Cn1ccnc1C(=O)/C=C/c1ccc(NC(=O)c2c(F)c(F)c(F)c(F)c2F)cc1	label 0
CCCCCc1ccc(S(=O)(=O)Nc2cccc(-c3csc(NC(=O)CN4CCN(C)CC4)n3)c2)cc1	label 0
Cc1ccc2c(c1)C13C(=C2Br)CCCN1C(=O)c1ccccc13 (stereo not drawn)	label 0
CC(C)(C)n1nnnc1C(Nc1cccc2c1OCO2)c1cc2cccc3ccc4cccc1c4c32 (stereo not drawn)	label 0
N/C(=N\C(N)=N\c1nc2ccccc2s1)c1cccc(F)c1	label 0
CCn1c2ccccc2c2cc(-n3nncc3-c3ccccc3)ccc21	label 0
COc1cccc(/C=C(/C)c2ccc3cccc(OC)c3[o+]2)c1O	label 0
CCCn1cnc2c(c1=N)C(c1ccc(Cl)cc1)c1sc3c(C)cccc3c1O2 (stereo not drawn)	label 0
COc1ccc(CCOc2cc3c(cc2OC)CCN(C(=O)NCc2cocn2)C3c2ccc(C)cc2C)cc1 (stereo not drawn)	label 1
CC(C)(C)c1ccc(CC(=O)Nc2sc3c(c2C(N)=O)CCC(=O)C3)cc1	label 1
N#Cc1cn(Cc2ccc(Cl)cc2Cl)c(C(=O)c2ccc(Br)cc2)c1N	label 0
Cn1ccnc1C(=O)/C=C/C=C/c1ccc(C(=O)Nc2ccc(F)cc2)cc1	label 0
